Tested on: Plasmodium falciparum Dd2 (chloroquine resistant strain)
Type: cell-based
Conditions: DD2, read-out: Dd2: IC50
test_readout: IC50 (nM)

Here's what some known entries look like.
• Clc1ccc2c(NCCNCc3ccccn3)ccnc2c1 [L^1] = 220
• CCN(CC)CCCC(C)Nc1ccnc2cc(Cl)ccc12 (centres unmarked) [CQ, chloroquine] = 143

(P) Clc1ccc2c(NCCN(Cc3ccccn3)Cc3ccccn3)ccnc2c1 [L^4]
(Q) Cn1ccnc1CNCCNc1ccnc2cc(Cl)ccc12 [L^2]
Q. Given the listed items, does P or Q have the lesser reported IC50? Output the label that corresponds to your choice.
A. Q

Cited source for all entries: paper PMC3303165
